Target: ATP-sensitive inward rectifier potassium channel 1 (Homo sapiens)
Assay: ROMK potassium channel modulators, primary screen, cell-based, thallium flux, MLSMR library (AID 1918);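 also: B-score of the F/F0 ratio slope over 7 to 12 s after thallium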
Conditions: Tet-inducible ROMK, thallium flux fluorescence; at 10 µM; actives lie on both sides
The campaign covered roughly 130,000 compounds. About 2,500 (1.9%) were called active.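 The calls were made as follows: active = signal ratio slope over the read window, or its plate-corrected B-score, at least 3 SD from the plate mean, either direction; inactive = the rest.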 For the sample, actives were picked, then their nearest neighbours and some compounds at random.
Please answer using one outcome listed in active, inactive

Worked examples follow.
molecule=C/C(=N\Nc1nc(N2CCOCC2)nc(N2CCOCC2)n1)c1ccc([N+](=O)[O-])cc1 category_label=inactive
molecule=Cc1cc(/C=N/NC(=O)c2cccnc2)c(C)n1CC(C)C category_label=inactive
molecule=Cc1ccc2nc(COc3ccc(N(C)S(=O)(=O)c4ccccc4)cc3)cc(=O)n2c1 category_label=inactive
molecule="CCNC(=O)CC1C(=O)N(c2ccc(OC)cc2)C(=S)N1CCc1ccncc1 (stereo not given)" category_label=inactive
molecule="CCOc1ccc(-n2cnnn2)cc1S(=O)(=O)N1CCC(C)CC1C (stereo not given)" category_label=active

Please indicate how the test categorized `CCOc1cc(/C=C(/C#N)c2ccc(Cl)cc2)cc(Cl)c1OCC(=O)O` .
inactive

Please indicate how the test categorized `CCCN(CC(=O)Nc1ccc(C(N)=O)cc1)CC(=O)Nc1ccccc1C` .
inactive

Please indicate how the test categorized Cc1ccc(N2C(=O)C3CC3C2=O)cc1 (stereo not given) .
active

Please indicate how the test categorized `N#Cc1c(-c2ccc(F)cc2)nc(-c2ccccc2)[nH]c1=O` .
inactive

Please indicate how the test categorized `CCOc1ccc(C(C)C)cc1S(=O)(=O)n1nc(C)cc1C` .
inactive

====

Target: ATP-sensitive inward rectifier potassium channel 1 (Homo sapiens)
Test: ROMK potassium channel modulators, primary screen, cell-based, thallium flux, MLSMR library (AID 1918);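 also: B-score of the F/F0 ratio slope over 7 to 12 s after thallium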
Settings: Tet-inducible ROMK, thallium flux fluorescence; at 10 µM; actives lie on both sides
In all, about 130,000 compounds went through this assay and about 2,500 (1.9%) were called active. For the sample, actives were picked, then their nearest neighbours and some compounds at random.
Quick reference: B-score of the listed items.

Recorded B-score, per entry:
molecule="Cc1cccc(C)c1OCC(O)CN1CCCCC1 (configuration not stated)" obs_value="0.161 (inactive)"
molecule=CCOC(=O)N1CCN(C(=O)c2ccccc2N(Cc2ccccc2)S(=O)(=O)c2ccc(OC)cc2)CC1 obs_value="2.44 (inactive)"
molecule="Cc1cccc(N2CCN(C(c3ccc(N(C)C)cc3)c3nnnn3C(C)(C)C)CC2)c1C (configuration not stated)" obs_value="-2.94 (active)"
molecule=Cc1nccc(-c2ccc(-n3c(C)ccc3C)cc2)n1 obs_value="-1.01 (inactive)"
molecule=COc1cc2c(cc1OC)C(/C=C/c1ccco1)=NCC2 obs_value="-7.44 (active)"

State its B-score on ATP-sensitive inward rectifier potassium channel 1 (Homo sapiens): `C=CCn1c(COc2ccc(F)cc2)nnc1SCC(=O)Nc1cccc(S(N)(=O)=O)c1`
0.118 (inactive)

State its B-score on ATP-sensitive inward rectifier potassium channel 1 (Homo sapiens): CCOC(=O)C(NC(C)=O)C(=O)Nc1ccc(OC)cc1 (configuration not stated)
2.1 (inactive)

State its B-score on ATP-sensitive inward rectifier potassium channel 1 (Homo sapiens): `S=c1[nH]nc(-c2cccnc2)n1/N=C/C(Cl)=C\c1ccccc1`
-3.13 (active)

State its B-score on ATP-sensitive inward rectifier potassium channel 1 (Homo sapiens): `S=c1[nH]nc(-c2ccccc2)n1/N=C/c1c[nH]c2ccccc12`
1.36 (inactive)

State its B-score on ATP-sensitive inward rectifier potassium channel 1 (Homo sapiens): `CC(=O)Nc1nc2ccccc2n1Cc1ccc(C)cc1`
-0.122 (inactive)

State its B-score on ATP-sensitive inward rectifier potassium channel 1 (Homo sapiens): `Cc1[nH]n(-c2ccc(Cl)cc2)c(=O)c1/C=N/n1c(C)nc2ccccc2c1=O`
-0.843 (inactive)

State its B-score on ATP-sensitive inward rectifier potassium channel 1 (Homo sapiens): `Cc1cc(/C=C2/NC(=O)NC2=O)c(C)n1-c1cccnc1`
0.0128 (inactive)

State its B-score on ATP-sensitive inward rectifier potassium channel 1 (Homo sapiens): `N/C(=N\OC(=O)CCc1ccccc1)c1cccnc1`
0.92 (inactive)

State its B-score on ATP-sensitive inward rectifier potassium channel 1 (Homo sapiens): CC(Nc1nc(N2CCOCC2)nc2ccccc12)c1ccccc1 (configuration not stated)
-0.474 (inactive)

State its B-score on ATP-sensitive inward rectifier potassium channel 1 (Homo sapiens): `O=C1/C(=C\c2ccccc2Cl)SC(=S)N1CCC(=O)N1CCCc2ccccc21`
-0.502 (inactive)

Data credit: PubChem BioAssay AID1918
